The measurements presented in this section are drawn from patent US20240299412A1.

- assay.notes: Kinetic solubility in bio-relevant media and H2O
- Assay type: physicochemical
- condition.details: simulated gastric fluid, thermodynamic from solid; SGF (pH 1.8), 37° C., 4 hr; Turbid, final pH 2.3
measurement.label: solubility at 4 h (µg/mL)
Output spec: scalar in µg/mL, unitless text.

### Prompt I'd like to know its solubility at 4 h. The compound in question is CC(C)(C(=O)N1CCOc2c(C#N)cncc2C1)C(F)F [Form A]
### Response 2400

====

- assay.notes: Kinetic solubility in bio-relevant media and H2O
- Assay type: physicochemical
- condition.details: thermodynamic from solid; FeSSIF (pH 5.0), 37° C., 1 hr; Turbid, final pH 5.6
measurement.label: solubility at 1 h (µg/mL)
Output spec: scalar in µg/mL, unitless text.

### Prompt I'd like to know its solubility at 1 h. The compound in question is CC(C)(C(=O)N1CCOc2c(C#N)cncc2C1)C(F)F [Form A]
### Response 1100

====

- assay.notes: 24-Hrs solubility in pH buffers
- Format: physicochemical
- condition.details: 50 mM citrate buffer, aqueous buffer, thermodynamic from solid; pH 6.0 (50 mM Citrate), 24 hrs; Turbid, final pH 5.9
measurement.label: solubility at 24 h (µg/mL)
Output spec: scalar in µg/mL, unitless text.

### Prompt I'd like to know its solubility at 24 h. The compound in question is CC(C)(C(=O)N1CCOc2c(C#N)cncc2C1)C(F)F [Form A]
### Response 750

====

- assay.notes: Kinetic solubility in bio-relevant media and H2O
- Assay type: physicochemical
- condition.details: thermodynamic from solid; FaSSIF (pH 6.5), 37° C., 1 hr; Turbid, final pH 6.4
- Experimental: Solids were suspended in FaSSIF, FeSSIF, SGF and H2O with target conc. of ˜10 mg/mL. The suspensions were agitated on a rolling incubator at 25 rpm (in the incubator set at 37° C.) for 1, 4 and 24 hrs. At each time point, 1 mL of the suspension was pipetted out for centrifugation at 15000 rpm (3 min) and filtration through 0.45 μm membrane to obtain supernatant for HPLC solubility and pH tests, the residual solids were analyzed by XRPD.
measurement.label: solubility at 1 h (µg/mL)
Output spec: scalar in µg/mL, unitless text.

### Prompt I'd like to know its solubility at 1 h. The compound in question is CC(C)(C(=O)N1CCOc2c(C#N)cncc2C1)C(F)F [Form A]
### Response 1100

====

- assay.notes: 24-Hrs solubility in pH buffers
- Assay type: physicochemical
- condition.details: 50 mM citrate buffer, aqueous buffer, thermodynamic from solid; pH 4.0 (50 mM Citrate), 24 hrs; Turbid, final pH 4.1
measurement.label: solubility at 24 h (µg/mL)
Output spec: scalar in µg/mL, unitless text.

### Prompt I'd like to know its solubility at 24 h. The compound in question is CC(C)(C(=O)N1CCOc2c(C#N)cncc2C1)C(F)F [Form A]
### Response 840

====

- assay.notes: Kinetic solubility in bio-relevant media and H2O
- Assay type: physicochemical
- condition.details: thermodynamic from solid; FeSSIF (pH 5.0), 37° C., 4 hr; Turbid, final pH 5.6
measurement.label: solubility at 4 h (µg/mL)
Output spec: scalar in µg/mL, unitless text.

### Prompt I'd like to know its solubility at 4 h. The molecule in question is CC(C)(C(=O)N1CCOc2c(C#N)cncc2C1)C(F)F [Form A]
### Response 1200

====

- assay.notes: Kinetic solubility in bio-relevant media and H2O
- Assay type: physicochemical
- condition.details: water, thermodynamic from solid; H2O (pH 6.5), 37° C., 1 hr; Turbid, final pH 8.5
measurement.label: solubility at 1 h (mg/mL)
Output spec: scalar in mg/mL, unitless text.

### Prompt I'd like to know its solubility at 1 h. The compound in question is CC(C)(C(=O)N1CCOc2c(C#N)cncc2C1)C(F)F [Form A]
### Response 1.1

====

- assay.notes: 24-Hrs solubility in pH buffers
- Assay type: physicochemical
- condition.details: 50 mM phosphate buffer, aqueous buffer, thermodynamic from solid; pH 7.0 (50 mM Phosphate), 24 hrs; Turbid, final pH 6.9
measurement.label: solubility at 24 h (µg/mL)
Output spec: scalar in µg/mL, unitless text.

### Prompt I'd like to know its solubility at 24 h. The compound in question is CC(C)(C(=O)N1CCOc2c(C#N)cncc2C1)C(F)F [Form A]
### Response 900

====

- assay.notes: Kinetic solubility in bio-relevant media and H2O
- Format: physicochemical
- condition.details: simulated gastric fluid, thermodynamic from solid; SGF (pH 1.8), 37° C., 1 hr; Turbid, final pH 1.8
- Experimental: Solids were suspended in FaSSIF, FeSSIF, SGF and H2O with target conc. of ˜10 mg/mL. The suspensions were agitated on a rolling incubator at 25 rpm (in the incubator set at 37° C.) for 1, 4 and 24 hrs. At each time point, 1 mL of the suspension was pipetted out for centrifugation at 15000 rpm (3 min) and filtration through 0.45 μm membrane to obtain supernatant for HPLC solubility and pH tests, the residual solids were analyzed by XRPD.
measurement.label: solubility at 1 h
Please state the value followed by its unit.

### Prompt I'd like to know its solubility at 1 h. The molecule in question is CC(C)(C(=O)N1CCOc2c(C#N)cncc2C1)C(F)F [Form A]
### Response 2300 µg/mL

====

- assay.notes: Kinetic solubility in bio-relevant media and H2O
- Assay type: physicochemical
- condition.details: thermodynamic from solid; FeSSIF (pH 5.0), 37° C., 24 hr; Turbid, final pH 5.6
measurement.label: solubility at 24 h (µg/mL)
Output spec: scalar in µg/mL, unitless text.

### Prompt I'd like to know its solubility at 24 h. The compound in question is CC(C)(C(=O)N1CCOc2c(C#N)cncc2C1)C(F)F [Form A]
### Response 1200

====

- assay.notes: Kinetic solubility in bio-relevant media and H2O
- Assay type: physicochemical
- condition.details: water, thermodynamic from solid; H2O (pH 6.5), 37° C., 4 hr; Turbid, final pH 8.4
measurement.label: solubility at 4 h (µg/mL)
Output spec: scalar in µg/mL, unitless text.

### Prompt I'd like to know its solubility at 4 h. The molecule in question is CC(C)(C(=O)N1CCOc2c(C#N)cncc2C1)C(F)F [Form A]
### Response 1100

====

- assay.notes: 24-Hrs solubility in pH buffers
- Assay type: physicochemical
- condition.details: 50 mM phosphate buffer, aqueous buffer, thermodynamic from solid; pH 8.0 (50 mM Phosphate), 24 hrs; Turbid, final pH 7.8
measurement.label: solubility at 24 h
Please state the value followed by its unit.

### Prompt I'd like to know its solubility at 24 h. The compound in question is CC(C)(C(=O)N1CCOc2c(C#N)cncc2C1)C(F)F [Form A]
### Response 810 µg/mL

====

- assay.notes: Kinetic solubility in bio-relevant media and H2O
- Format: physicochemical
- condition.details: water, thermodynamic from solid; H2O (pH 6.5), 37° C., 24 hr; Turbid, final pH 8.7
measurement.label: solubility at 24 h (µg/mL)
Output spec: scalar in µg/mL, unitless text.

### Prompt I'd like to know its solubility at 24 h. The compound in question is CC(C)(C(=O)N1CCOc2c(C#N)cncc2C1)C(F)F [Form A]
### Response 1100

====

- assay.notes: pKa measurement (Sirius T3, UV metric method)
- Type: physicochemical
- condition.details: MeOH as solvent, Yasuda-Shedlovsky extrapolation, ionic strength 0.176M, 28.9° C., to be taken as reference (effective range pH 2-12)
measurement.label: pKa

### Prompt I'd like to know its pKa. The compound in question is CC(C)(C(=O)N1CCOc2c(C#N)cncc2C1)C(F)F
### Response 1.68

====

- assay.notes: Kinetic solubility in bio-relevant media and H2O
- Format: physicochemical
- condition.details: thermodynamic from solid; FaSSIF (pH 6.5), 37° C., 4 hr; Turbid, final pH 6.6
measurement.label: solubility at 4 h (µg/mL)
Output spec: scalar in µg/mL, unitless text.

### Prompt I'd like to know its solubility at 4 h. The molecule in question is CC(C)(C(=O)N1CCOc2c(C#N)cncc2C1)C(F)F [Form A]
### Response 1100
